Study target: Adenosine receptor A3 (Homo sapiens)
Method: Displacement of specific [125 I]AB-MECA binding at human Adenosine A3 receptor expressed in HEK cells
Type: cell-based
Applied conditions: HEK293
Metric name: pKi

>>> result_value("CCOC(=O)c1c(CC)nc(-c2ccccc2)c(C(=O)OCC)c1C")
6.92
>>> result_value("CCCOC(=O)c1c(-c2ccccc2)nc(CC)c(C(=O)SCC)c1CCCO")
6.77
>>> result_value("CCOC(=O)c1c(C)nc(-c2ccccc2)c(C(=O)OCc2ccccc2)c1C#Cc1ccccc1")
5.56
>>> result_value("CCSC(=O)c1c(CC)nc(-c2ccccc2)c(C(=O)OCCO)c1CC")
6.73
>>> result_value("CCCOC(=O)c1c(-c2cccc(F)c2)nc(CC)c(C(=O)SCC)c1CCC")
7.54

* * *

pKi: −log10 of the molar value.
pKi data for Adenosine receptor A2a (Rattus norvegicus) follow.
Metric name: pKi

>>> result_value("CCCOC(=O)c1c(-c2ccccc2)nc(CC)c(C(=O)SCC)c1CCCF")
4.56
>>> result_value("CCCOC(=O)c1c(-c2ccccc2F)nc(CC)c(C(=O)SCC)c1CCC")
5.06
>>> result_value("CCCOC(=O)c1c(-c2ccccc2)nc(CC)c(C(=O)SCC)c1CCC")
5.69
>>> result_value("CCOC(=O)c1c(-c2ccccc2)nc(CC)c(C(=O)SCC)c1CCN1C(=O)c2ccccc2C1=O")
5.94

* * *

Target sequence: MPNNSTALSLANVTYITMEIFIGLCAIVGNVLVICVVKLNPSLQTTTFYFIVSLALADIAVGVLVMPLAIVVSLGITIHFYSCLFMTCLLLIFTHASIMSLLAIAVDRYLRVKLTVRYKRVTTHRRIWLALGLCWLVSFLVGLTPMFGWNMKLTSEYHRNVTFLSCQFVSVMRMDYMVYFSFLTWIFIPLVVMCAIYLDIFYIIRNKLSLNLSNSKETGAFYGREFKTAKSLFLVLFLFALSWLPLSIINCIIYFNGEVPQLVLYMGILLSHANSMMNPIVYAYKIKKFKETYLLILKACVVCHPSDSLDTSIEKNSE
pKi: −log10 of the molar value.
Item-by-item account of pKi
Metric name: pKi

>>> result_value("CCCc1c(C(=O)SCC)c(CCSC(C)=O)nc(-c2ccccc2)c1C(=O)OCC")
6.71
>>> result_value("CCCOC(=O)c1c(-c2ccccc2)nc(CC)c(C(=O)SCC)c1CCSC(C)=O")
6.91
>>> result_value("CCCOC(=O)c1c(-c2ccccc2)nc(CC)c(C(=O)SCCOC2CCCCO2)c1CCC (configuration not stated)")
6.29
>>> result_value("CCCOC(=O)c1c(-c2ccccc2)nc(CC)c(C(=O)SCC2COC(C)(C)O2)c1CCC (configuration not stated)")
5.58
>>> result_value("CCCOC(=O)c1c(-c2ccc(F)cc2)nc(CC)c(C(=O)SCC)c1CCC")
7.51
>>> result_value("CCCOC(=O)c1c(-c2ccccc2)nc(CC)c2c1CCSC2=O")
6.61
>>> result_value("CCCOC(=O)c1c(-c2ccccc2)nc(CCOCc2ccccc2)c(C(=O)SCC)c1CCC")
6.96

* * *

Item-by-item account of Ki
Study target: Adenosine receptor A3 (Rattus norvegicus, UniProt P28647)
Sequence (P28647 whole entry): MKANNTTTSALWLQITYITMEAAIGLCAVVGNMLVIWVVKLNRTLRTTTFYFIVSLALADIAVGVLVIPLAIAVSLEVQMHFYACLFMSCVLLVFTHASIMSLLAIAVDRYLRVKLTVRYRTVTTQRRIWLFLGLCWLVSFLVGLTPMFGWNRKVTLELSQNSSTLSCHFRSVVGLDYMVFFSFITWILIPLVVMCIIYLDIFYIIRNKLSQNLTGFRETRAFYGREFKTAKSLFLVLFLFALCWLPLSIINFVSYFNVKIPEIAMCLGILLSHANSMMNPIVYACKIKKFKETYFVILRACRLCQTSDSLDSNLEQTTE
Metric name: Ki (nM)

>>> result_value("CCCOC(=O)c1c(-c2ccccc2)nc(CC)c(C(=O)SCC(F)(F)F)c1CCC")
495
>>> result_value("CCCOC(=O)c1c(-c2ccccc2)nc(CC)c(C(=O)SCC)c1CCCF")
900
>>> result_value("CCSC(=O)c1c(CC)nc(-c2ccccc2)c(C(=O)OCCF)c1CC")
600
>>> result_value("CCCc1c(C(=O)SCC)c(CC)nc(-c2ccccc2)c1C(=O)OCCCF")
512
